- Tested on: replicon cells (1b-Con1)
- test description: Replicon activity assay (replicon RNA level by real-time RT-PCR, Taqman)
- Format: cell-based
- measurement setup: Hepatitis C virus, HCV replicon genotype 1b; read-out: EC50 (1b) Range
measured metric: EC50

Study these solved cases before continuing.
Can you look up the measured EC50 of C#C[C@]1(C)[C@@H]2O[P@](=O)(OC[C@H](CC(=O)OC(C)C)OC)OC[C@H]2O[C@H]1n1ccc(=O)[nH]c1=O [Compound 60B] for me? > 10 µM

Now consider CC(C)OC(=O)C(CCO[P@]1(=O)OC[C@H]2O[C@@H](n3cnc4c(N)ncnc43)[C@](C)(Cl)[C@@H]2O1)C(=O)OC(C)C [Compound 70B] . 1 to 10 µM

Now consider `C#C[C@@]1(OC(=O)CCCCCC)[C@@H]2O[P@@](=O)(OCC[C@@H](C)C(=O)OC(C)C)OC[C@H]2O[C@H]1n1ccc(=O)[nH]c1=O` . ≤ 0.25 µM

Now consider CC(C)OC(=O)CC(F)(F)CO[P@]1(=O)OC[C@H]2O[C@@H](n3ccc(=O)[nH]c3=O)[C@](C)(N)[C@@H]2O1 [Compound 49B] . 1 to 10 µM

Now consider C#C[C@]1(C)[C@@H]2O[P@@](=O)(OC[C@@H](F)CC(=O)OC(C)C)OC[C@H]2O[C@H]1n1ccc(=O)[nH]c1=O [Compound 64A] . 0.25 to 1 µM

Now consider CC(C)OC(=O)C(C)CCOP1(=O)OC[C@H]2O[C@@H](n3ccc(=O)[nH]c3=O)[C@](C)(N)[C@@H]2O1 (stereo partly shown) [Compound 10A] . > 10 µM

Now consider CC(C)OC(=O)C(CCO[P@@]1(=O)OC[C@H]2O[C@@H](n3cnc4c(N)ncnc43)[C@](C)(Cl)[C@@H]2O1)C(=O)OC(C)C [Compound 70A] . 0.25 to 1 µM

Now consider CC(C)OC(=O)COCCO[P@]1(=O)OC[C@H]2O[C@@H](n3ccc(=O)[nH]c3=O)[C@](C)(N)[C@@H]2O1 [Compound 69B] . > 10 µM

Now consider CC(C)OC(=O)C(C)CCOP1(=O)OC[C@H]2O[C@@H](n3cnc4c(N)ncnc43)[C@](C)(Cl)[C@@H]2O1 (stereo partly shown) [Compound 35A] . ≤ 0.25 µM

Now consider C#C[C@]1(C)[C@@H]2OP(=O)(OCCC(C)C(=O)OC3CCCC3)OC[C@H]2O[C@H]1n1ccc(=O)[nH]c1=O (stereo partly shown) [Compound 2A] . 1 to 10 µM

Look up EC50 for the entries below, preserving their order.
1. C#C[C@]1(C)[C@@H]2O[P@@](=O)(OCCOCC(=O)OC(C)C)OC[C@H]2O[C@H]1n1ccc(=O)[nH]c1=O [Compound 68A]
2. CC(C)OC(=O)C(C)(C)CCO[P@]1(=O)OC[C@H]2O[C@@H](n3ccc(=O)[nH]c3=O)[C@](C)(N)[C@@H]2O1 [Compound 19B]
3. COC(=O)N[C@@H](CCO[P@@]1(=O)OC[C@H]2O[C@@H](n3ccc(=O)[nH]c3=O)[C@](C)(N)[C@@H]2O1)C(=O)OC(C)C [Compound 42A]
4. CC(C)OC(=O)C(C)(C)CO[P@]1(=O)OC[C@H]2O[C@@H](n3ccc(=O)[nH]c3=O)[C@](C)(C#N)[C@@H]2O1 [Compound 16B]
5. CC(C)OC(=O)[C@@H](C)CCO[P@]1(=O)OC[C@H]2O[C@@H](n3ccc4c(N)ncnc43)[C@](C)(Cl)[C@@H]2O1 [Compound 80B]
6. CC(C)OC(=O)CS(=O)(=O)CCO[P@@]1(=O)OC[C@H]2O[C@@H](n3ccc(=O)[nH]c3=O)[C@](C)(N)[C@@H]2O1 [Compound 58A]
7. C#C[C@@]1(O)[C@@H]2O[P@](=O)(OCCC(C(=O)OC(C)C)C(=O)OC(C)C)OC[C@H]2O[C@H]1n1ccc(=O)[nH]c1=O [Compound 59B]
8. CC(C)OC(=O)C(C)CCCO[P@]1(=O)OC[C@H]2O[C@@H](n3ccc(=O)[nH]c3=O)[C@](C)(N)[C@@H]2O1 (stereo partly shown) [Compound 34B]

> 10 µM
> 10 µM
> 10 µM
> 10 µM
1 to 10 µM
> 10 µM
≤ 0.25 µM
> 10 µM

Look up EC50 for the entries below, preserving their order.
1. C#C[C@]1(C)[C@@H]2OP(=O)(OCCC(C)C(=O)OC(C)C)OC[C@H]2O[C@H]1n1ccc(=O)[nH]c1=O (stereo partly shown)
2. CC(CCO[P@@]1(=O)OC[C@H]2O[C@@H](n3ccc(=O)[nH]c3=O)[C@](C)(N)[C@@H]2O1)C(=O)OC1CCCCC1 (stereo partly shown) [Compound 78A]
3. CC(C)OC(=O)[C@@H](C)CCO[P@@]1(=O)OC[C@H]2O[C@@H](n3cnc4c(N)ncnc43)[C@](C)(C#N)[C@@H]2O1 [Compound 71A]
4. CCCCCOC(=O)C(C)CCO[P@]1(=O)OC[C@H]2O[C@@H](n3ccc(=O)[nH]c3=O)[C@](C)(N)[C@@H]2O1 (stereo partly shown) [Compound 79B]
5. CC(C)OC(=O)[C@@H](C)CCO[P@@]1(=O)OC[C@H]2O[C@@H](n3cnc4c(N)ncnc43)[C@](C)(N)[C@@H]2O1 [Compound 73A]
6. C#C[C@]1(C)[C@@H]2O[P@@](=O)(OCCC(C)C(=O)OC3CCCCC3)OC[C@H]2O[C@H]1n1ccc(=O)[nH]c1=O (stereo partly shown) [Compound 77A]
7. C#C[C@]1(C)[C@@H]2O[P@@](=O)(OCC[C@H](NC(=O)OC)C(=O)OC(C)C)OC[C@H]2O[C@H]1n1ccc(=O)[nH]c1=O [Compound 43A]

1 to 10 µM
> 10 µM
> 10 µM
1 to 10 µM
> 10 µM
1 to 10 µM
> 10 µM

Taken from patent US20200179428A1.
